The reported numbers originate from the NIST ThermoML archive (doi:10.1021/je900757k).

- assay.explanation: isobaric coefficient of expansion
- cond: 298.15 K; 5000 kPa; Liquid; DSC
isobaric coefficient of expansion for assorted compounds

Example entries begin here.
Find the recorded isobaric coefficient of expansion belonging to CCCCCCCCCC [decane] and report it. 0.001 1/K

Find the recorded isobaric coefficient of expansion belonging to CCCCCCCCCCCC [dodecane] and report it. 0.00094 1/K

Continuing:
Find the recorded isobaric coefficient of expansion belonging to ClC(Cl)(Cl)Cl [tetrachloromethane] and report it. 0.00119 1/K

Find the recorded isobaric coefficient of expansion belonging to c1ccccc1 [benzene] and report it. 0.0012 1/K

Find the recorded isobaric coefficient of expansion belonging to CCCCCCCCCCCCCC [tetradecane] and report it. 0.000909 1/K

Find the recorded isobaric coefficient of expansion belonging to CCCCCCCCCCCCCCC [pentadecane] and report it. 0.000896 1/K

Find the recorded isobaric coefficient of expansion belonging to CCCCCCCCCCC [undecane] and report it. 0.000965 1/K

Find the recorded isobaric coefficient of expansion belonging to CCCCCCCCCCCCC [tridecane] and report it. 0.000891 1/K

Find the recorded isobaric coefficient of expansion belonging to CCCCCCCCC [nonane] and report it. 0.00105 1/K
